Test: Synchrotron radiation circular dichroism, alpha-helical content (Bestsel)
Assay type: physicochemical
Conditions: buffer A, 25 °C, far-UV SRCD
Field 'label' (enum: t / f). Set to t when alpha-helical content, Solution is strictly under 10%; else f.

1. Ac-ASAHWGQRALQGAQAVAAAQRLVHAIAAMTQ-NH2 [P454 L481A]    t
2. Ac-ASAHWGQRALQGAQAVAAAQRLVSAIALMTQ-NH2 [P454 H477S]    t
3. Ac-ASAHWGQKALQGAQAVAAAQKLVHAIALMTQ-NH2 [P454 R12K]    f

Turning now to a further record.
Input: A record lists Ac-ASAHWGQRALQGAQAVAAAQRLVHAVALMTQ-NH2 [P454 I479V] . Is its alpha-helical content, Solution below 10%?
Output: t
